Catalogue of binders with associated Efficacy (ELK-luciferase, relative to wild-type FGF21)
System Tested: β-Klotho overexpressed in recombinant human 293T kidney cells
Assay Name: cell-based or functional assay
Form entry: value (%) — number only.

// below: answered binders
[
  {
    "Binder": "FGF21 truncation mutant 1-171 (ligand) HPIPDSSPLLQFGGQVRQRYLYTDDAQQTEAHLEIREDGTVGGAADQSPESLLQLKALKPGVIQILGVKTSRFLCQRPDGALYGSLHFDPEACSFRELLLEDGYNVYQSEAHGLPLHLPGNKSPHRDPAPRGPARFLPLPGLPPAPPEPPGILAPQPPDVGSSDPLSMVGP",
    "Val": 113
  },
  {
    "Binder": "FGF21 truncation mutant 1-177 (ligand) HPIPDSSPLLQFGGQVRQRYLYTDDAQQTEAHLEIREDGTVGGAADQSPESLLQLKALKPGVIQILGVKTSRFLCQRPDGALYGSLHFDPEACSFRELLLEDGYNVYQSEAHGLPLHLPGNKSPHRDPAPRGPARFLPLPGLPPAPPEPPGILAPQPPDVGSSDPLSMVGPSQGRSP",
    "Val": 112
  },
  {
    "Binder": "FGF21 truncation mutant 1-167 (ligand) HPIPDSSPLLQFGGQVRQRYLYTDDAQQTEAHLEIREDGTVGGAADQSPESLLQLKALKPGVIQILGVKTSRFLCQRPDGALYGSLHFDPEACSFRELLLEDGYNVYQSEAHGLPLHLPGNKSPHRDPAPRGPARFLPLPGLPPAPPEPPGILAPQPPDVGSSDPLS",
    "Val": 20
  }
]

// moving on: another record for Efficacy (ELK-luciferase, relative to wild-type FGF21)
Which value of Efficacy (ELK-luciferase, relative to wild-type FGF21) has been reported for FGF21 truncation mutant 1-174 (ligand) HPIPDSSPLLQFGGQVRQRYLYTDDAQQTEAHLEIREDGTVGGAADQSPESLLQLKALKPGVIQILGVKTSRFLCQRPDGALYGSLHFDPEACSFRELLLEDGYNVYQSEAHGLPLHLPGNKSPHRDPAPRGPARFLPLPGLPPAPPEPPGILAPQPPDVGSSDPLSMVGPSQG in the records?
105
